Conditions: [M-H]-; instrument: DT; stepped-field
Recorded measurements of collision cross section (N2), one per entry
Property name: collision cross section (N2) (Å²)

Molecule	Unit descriptor	Test value
CCCCCC/C=C\CCCCCCCC(=O)OC[C@@H](O)COP(=O)(O)O	Å²	191.1
CCCC/C=C\C/C=C\CCCCCCCC(=O)O[C@H](COC(=O)CCCCCCC/C=C\CCCCCCCCC)COP(=O)(O)O[C@H]1C(O)C(O)C(O)[C@@H](O)C1O (some centres not stated)	Å²	296.3
CCCCCCCCC/C=C\CCCCCCCC(=O)O[C@H](COC(=O)CCCCCCCCCCCC)COP(=O)(O)OC[C@H](N)C(=O)O	Å²	272.6
CCCCC/C=C\C/C=C\C/C=C\C/C=C\CCCCCC(=O)O[C@H](COC(=O)CCCCCCC/C=C\C/C=C\CCCCC)COP(=O)(O)OC[C@H](N)C(=O)O	Å²	295.4
CCCCCCCC/C=C\CCCCCCCC(=O)OC[C@@H](O)COP(=O)(O)O[C@H]1C(O)C(O)C(O)[C@@H](O)C1O (some centres not stated)	Å²	233.4
CCCCC/C=C\C/C=C\CCCCCCCCCC(=O)O[C@H](COC(=O)CCCCCCCCCCC)COP(=O)(O)O	Å²	250
CCCCC/C=C\C/C=C\CCCCCCCCCCCC(=O)O[C@H](COC(=O)CCCCCCCCCCCCCCCCC)COP(=O)(O)OC[C@H](N)C(=O)O	Å²	301

###

Listed here are compounds together with their documented collision cross section (N2).
Conditions: [M+H-H2O]+; instrument: TW; calibrated with polyalanine and drug standards
Property name: collision cross section (N2) (Å²)

Compound	Unit descriptor	Test value
Cc1cc2c(C(C)C)c(O)c(O)c(C=O)c2c(O)c1-c1c(C)cc2c(C(C)C)c(O)c(O)c(C=O)c2c1O [GOSSYPOL]	Å²	228.1
COC(=O)C1=C(C)NC(C)=C(C(=O)OC)C1c1ccccc1[N+](=O)[O-] [NIFEDIPINE]	Å²	169.4
NCCc1c[nH]c2ccccc12 [TRYPTAMINE]	Å²	124.4
CCC(C)(C)C(=O)O[C@H]1C[C@@H](C)C=C2C=C[C@H](C)[C@H](CC[C@@H]3C[C@@H](O)CC(=O)O3)[C@H]21 [SIMVASTATIN]	Å²	199.6
NS(=O)(=O)c1cc2c(cc1Cl)NCNS2(=O)=O [HYDROCHLOROTHIAZIDE]	Å²	160.8
CC1(C)CC[C@]2(C(=O)O)CC[C@]3(C)C(=CC[C@@H]4[C@@]5(C)CC[C@H](O)[C@@](C)(CO)[C@@H]5CC[C@]43C)[C@@H]2C1 [HEDERAGENIN]	Å²	210.6
COc1cc([C@@H]2c3cc4c(cc3[C@H](O)[C@H]3COC(=O)[C@H]23)OCO4)cc(OC)c1OC [PODOFILOX]	Å²	190.1
C=C1C(=O)O[C@@H]2[C@H]3O[C@]3(C)CC/C=C(\C)CC[C@@H]12 [PARTHENOLIDE]	Å²	150.7

###

Listed compounds paired with reported collision cross section (N2)
Details: [M+2K]2+; instrument: TW; calibrated with phosphatidylcholines (ESI+) and phosphatidylethanolamines (ESI-), doubly charged cardiolipins calibrated with poly-DL-…
Property name: collision cross section (N2)

Compound	Property name	Test value
CCCCCC/C=C\CCCCCCCC(=O)OCC(COP(=O)(O)OCC(O)COP(=O)(O)OCC(COC(=O)CCCCCCCCCCCCCCC)OC(=O)CCCCCCC/C=C\CCCCCCCC)OC(=O)CCCCCCC/C=C\CCCCCC (stereo not drawn)	collision cross section (N2)	425.7 Å²
CCCCCC/C=C\CCCCCCCC(=O)OC(COC(=O)CCCCCCCCCCCCCC)COP(=O)(O)OCC(O)COP(=O)(O)OCC(COC(=O)CCCCCCCCCCCCCCC)OC(=O)CCCCCCC/C=C\CCCCCC (stereo not drawn)	collision cross section (N2)	421 Å²
CCCCCC/C=C\CCCCCCCC(=O)OC(COC(=O)CCCCCCCCCCCCCCC)COP(=O)(O)OCC(O)COP(=O)(O)OCC(COC(=O)CCCCCCCCCCCCCC)OC(=O)CCCCCCCCCCCCCCC (stereo not drawn)	collision cross section (N2)	421.5 Å²
